CTG-3D luminescence at 96 h reference
test system: HCI-023 (organoid from a triple-negative breast cancer xenograft); test: CTG-3D luminescence at 96 h relative to day-0 seeding control (ratio to day 0); higher = more growth / less cytotoxicity; PDxO 3D drug screen, 96 h, CTG-3D normalised to day-0 seeding control.; details: 625 fM; days in culture: 128
Enter a number only.

Form field CTG-3D luminescence at 96 h, entry O=C(/C=C/c1cccnc1)NCCCCC1CCN(C(=O)c2ccccc2)CC1 : 1.8

----------
system: HCI-027 (organoid from a triple-negative breast cancer xenograft); test: CTG-3D luminescence at 96 h relative to day-0 seeding control (ratio to day 0); higher = more growth / less cytotoxicity; PDxO 3D drug screen, 96 h, CTG-3D normalised to day-0 seeding control.; details: 10 µM; days in culture: 194
Here the recorded CTG-3D luminescence at 96 h is given for each entry.
Reply: number alone, nothing else.

{"columns": ["compound", "CTG-3D luminescence at 96 h"],
 "data": [
  ["CC1(C)CCC(c2ccc(Cl)cc2)=C(CN2CCN(c3ccc(C(=O)NS(=O)(=O)c4ccc(N[C@H](CCN5CCOCC5)CSc5ccccc5)c(S(=O)(=O)C(F)(F)F)c4)cc3)CC2)C1", 1.75]
]}

Continue with the next compound.
Log: HCI-027, compound C=CC(=O)N1CCC[C@@H](n2nc(-c3ccc(Oc4ccccc4)cc3)c3c(N)ncnc32)C1 , CTG-3D luminescence at 96 h = 1.69
